Data origin: patent US20250186437A1

# Test system: MOLM-13 cells
# ASSAY DETAILS: MOLM-13 Cell Proliferation Assay (indicator of DHODH inhibition)
# Assay type: cell-based
# MEASUREMENT CONTEXT: Homo sapiens, 72 Hours of culture, CellTiter-Glo, no uridine
A collection of compounds and their measured IC50
Response body: numeric value in nM, unit text excluded.

The following compounds have reported results that may help.
OCC/C=C/c1ccc(C2c3[nH]c4cc(F)c(Cl)cc4c3CCN2c2nccc(C(F)(F)F)n2)cc1 (stereo not shown) :: 1.1
Cc1nc(C)nc(N2CCc3c([nH]c4ccc(Cl)cc34)C2c2ccc(N3CCOCC3)nc2)n1 (stereo not shown) :: 13.4
FC(F)(F)c1nc(N2CCc3c([nH]c4ccc(-n5nccn5)cc34)[C@@H]2c2cnc(N3CCOCC3)nc2)nc(C(F)(F)F)n1 :: 1.4
Fc1c(C2c3[nH]c4ccc(Cl)cc4c3CCN2c2nccc(C(F)(F)F)n2)ccc(-n2ccnc2)c1F (stereo not shown) :: 2.8
N#Cc1ccnc(N2CCc3c([nH]c4cc(F)c(Cl)cc34)C2c2ccc(/C=C/CCO)cc2)n1 (stereo not shown) :: 3.9

Entry Clc1ccc2[nH]c3c(c2c1)CCN(c1nccc(-c2ccccc2)n1)C3c1cnc(N2CCOCC2)nc1 (stereo not shown) , IC50 reported as 116

Entry `Fc1c(Cl)ccc2[nH]c3c(c12)CCN(c1nccc(C(F)(F)F)n1)[C@H]3c1ccc(Cl)cc1` , IC50 reported as 1.3

====

# Test system: MOLM-13 cells
# ASSAY DETAILS: MOLM-13 Cell Proliferation Assay (indicator of DHODH inhibition)
# Format: cell-based
# MEASUREMENT CONTEXT: Homo sapiens, 72 Hours of culture, CellTiter-Glo, no uridine
MEASURED QUANTITY: IC50 (nM)
Response body: numeric value in nM, unit text excluded.

The following molecules have reported results that may help.
Cc1ccc(C2c3[nH]c4ccc(Cl)c(F)c4c3CCN2c2nc(C#N)cc(C#N)n2)cc1 (stereo not shown) :: 4.4
Cc1nc(C)nc(N2CCc3c([nH]c4c(O)cc(Cl)cc34)C2c2cnc(N3CCOCC3)nc2)n1 (stereo not shown) :: 8.1
Cc1ccc(C2c3[nH]c4ccc(Cl)cc4c3CCN2c2nccc(C(F)(F)F)n2)c(F)c1 (stereo not shown) :: 2.2
CN(C)c1nc(N2CCc3c([nH]c4ccc(Cl)cc34)[C@@H]2c2cnc(N3CCOCC3)nc2)nc(C(F)(F)F)n1 :: 5.8

Entry Cc1ccc(C2c3[nH]c4ccc(Cl)cc4c3CCN2c2nccc(N(C)C)n2)c(F)c1F (stereo not shown) , IC50 reported as 20

Entry Oc1c(F)cccc1C1c2[nH]c3ccc(Cl)cc3c2CCN1c1nccc(C(F)(F)F)n1 (stereo not shown) , IC50 reported as 2

Entry Fc1cnc(N2CCc3c([nH]c4ccc(Cl)cc34)C2c2cnc(N3CCOCC3)nc2)nc1 (stereo not shown) , IC50 reported as 10.1

====

# System: MOLM-13 cells
# ASSAY DETAILS: MOLM-13 Cell Proliferation Assay (indicator of DHODH inhibition)
# Format: cell-based
# MEASUREMENT CONTEXT: Homo sapiens, 72 Hours of culture, CellTiter-Glo, no uridine
MEASURED QUANTITY: pIC50
In textbook form, pIC50 equals minus log to base ten of the concentration in mol/L.

The compound Fc1cnc(N2CCc3c([nH]c4cc(F)c(Cl)cc34)C2c2cccc(F)c2F)nc1 (stereo not shown) , tested on MOLM-13 cells, showed pIC50 of 7.63

The compound Cc1ccc(C2c3[nH]c4ccc(Cl)c(F)c4c3CCN2c2nccc(C(F)(F)F)n2)cc1 (stereo not shown) , tested on MOLM-13 cells, showed pIC50 of 8.60

The compound CN(C)c1ncnc(N2CCc3c([nH]c4ccc(Cl)cc34)C2c2cnc(N3CCOCC3)nc2)n1 (stereo not shown) , tested on MOLM-13 cells, showed pIC50 of 7.11

The compound Cc1cc(C)nc(N2CCc3c([nH]c4ccc(Cl)c(F)c34)C2c2ccc(C)c(F)c2F)n1 (stereo not shown) , tested on MOLM-13 cells, showed pIC50 of 9.15

The compound `Cc1ccc([C@H]2c3[nH]c4ccc(Cl)cc4c3CCN2c2nc(C)nc(C)n2)cc1` , tested on MOLM-13 cells, showed pIC50 of 8.33

The compound Cc1ncc(C2c3[nH]c4cc(F)c(Cl)cc4c3CCN2c2ncc(Cl)cn2)cn1 (stereo not shown) , tested on MOLM-13 cells, showed pIC50 of 6.96

The compound Fc1cc2[nH]c3c(c2cc1Cl)CCN(c1ncc(Cl)cn1)C3c1ccc(C(F)(F)F)cc1 (stereo not shown) , tested on MOLM-13 cells, showed pIC50 of 7.51

The compound Cc1ccc(C2c3[nH]c4cc(F)c(Cl)cc4c3CCN2c2nc(C#N)cc(C#N)n2)c(F)c1F (stereo not shown) , tested on MOLM-13 cells, showed pIC50 of 8.32

The compound Cc1ccc(C2c3[nH]c4ccc(Cl)c(F)c4c3CCN2c2nccc(C(F)(F)F)n2)c(F)c1F (stereo not shown) , tested on MOLM-13 cells, showed pIC50 of 8.96

The compound CN(C)c1ncc(C2c3[nH]c4cc(F)c(Cl)cc4c3CCN2c2ncc(F)cn2)cn1 (stereo not shown) , tested on MOLM-13 cells, showed pIC50 of 7.52

The compound N#Cc1ccnc(N2CCc3c([nH]c4ccc(Cl)cc34)C2c2cnc(N3CCOCC3)nc2)n1 (stereo not shown) , tested on MOLM-13 cells, showed pIC50 of 8.10
